- Type: in vitro ADME
- condition: extraction ratio, compound at 1 uM, SD rat liver microsomes 0.5 mg/mL
Item-by-item account of Liver Microsomal Stability (ER) SD rat
Answer as a number with no unit attached.

Task item: Quick one: Liver Microsomal Stability (ER) SD rat of `C=CC(=O)N[C@H](C[C@@H]1CCNC1=O)NC(=O)[C@H](CC1CCCCC1)NC(=O)OCc1ccccc1` ?
Reply: 0.19

Task item: Would you mind doing CC(C)C[C@H](NC(=O)c1cc2ccccc2[nH]1)C(=O)N[C@@H](C[C@@H]1CCNC1=O)C(O)S(=O)(=O)[O-].[Na+] (stereo partly drawn) as well?
Reply: 0.12

Next:
Task item: Look at this molecule and give its reported Liver Microsomal Stability (ER) SD rat. `C[C@H](NC(=O)[C@@H]1[C@@H]2[C@H](CN1C(=O)[C@@H](NC(=O)C(F)(F)F)C(C)(C)C)C2(C)C)C(=O)CCl`
Reply: 0.53

====

- runDescription: in vivo
- condition: female, beagle, dog, po, 40 mg/kg
measure: bioavailability (%)
The reply should contain only the number, in %.

Task item: Reported bioavailability for `CC(C)C[C@H](NC(=O)c1cc2ccccc2[nH]1)C(=O)N[C@H](C=O)C[C@@H]1CCNC1=O` : what is it?
Reply: 31

====

Here the recorded AUC0-t is given for each entry.
- runDescription: in vivo
- condition: female, Balb/c, mouse, po, 40 mg/kg

Use the examples below as a reference point.
Task item: I have this compound here, CC(C)C[C@H](NC(=O)c1cc2c(F)cccc2[nH]1)C(=O)N[C@@H](C[C@@H]1CCNC1=O)C(=O)CO [Compound A-3-e] , and I need its recorded AUC0-t.
Reply: 261 ng·h/mL

Task item: CC(C)C[C@H](NC(=O)c1cc2ccccc2[nH]1)C(=O)N[C@@H](C[C@@H]1CCNC1=O)C(O)S(=O)(=O)[O-].[Na+] (stereo partly shown) [Compound A-1-d] , same question.
Reply: 2620 ng·h/mL

Task item: Repeat for the following compound: CC(C)C[C@H](NC(=O)c1cc2ccccc2[nH]1)C(=O)N[C@H](C=O)C[C@@H]1CCNC1=O [Compound A-1-c]
Reply: 2170 ng·h/mL

Shift focus to the following entry.
Task item: Query (compound): CC(C)C[C@H](NC(=O)c1cc2c(F)cccc2[nH]1)C(=O)N[C@H](C#N)C[C@@H]1CCNC1=O [Compound A-3-a] ; field requested: AUC0-t
Reply: 15500 ng·h/mL

====

- Tested on: SARS-CoV-2
- runDescription: Anti-viral in vitro PRNT assay in Vero E6 cells
- Type: cell-based
- condition: Vero E6 cells, 1000 pfu, 3 days, plaque reduction
measure: anti-SARS-CoV2 (PRNT) in Vero E6 EC50 (μM)

Task item: I have this compound here, `CC(C)C[C@H](NC(=O)C(C)(C)C)C(=O)N1C[C@H]2[C@@H]([C@H]1C(=O)N[C@H](C#N)C[C@@H]1CCNC1=O)C2(C)C` , and I need its recorded anti-SARS-CoV2 (PRNT) in Vero E6 EC50 (μM).
Reply: Inactive

Task item: // next record `CC(C)[C@@H](C#N)NC(=O)[C@@H]1[C@@H]2[C@H](CN1C(=O)[C@@H](NC(=O)C(F)(F)F)C1CC1)C2(C)C`
Reply: inactive

Task item: Next record, please: `C=CC(=O)N[C@H](C[C@@H]1CCNC1=O)NC(=O)[C@H](CC1CCCCC1)NC(=O)OCc1ccccc1`
Reply: inactive

Task item: Moving on to `C[C@H](NC(=O)[C@@H]1[C@@H]2[C@H](CN1C(=O)[C@@H](NC(=O)C(F)(F)F)C(C)(C)C)C2(C)C)C(=O)CCl`
Reply: inactive

Task item: Now the compound `CC(C)(C)C(=O)N[C@H](C(=O)N1C[C@H]2[C@@H]([C@H]1C(=O)N[C@H](C#N)C[C@@H]1CCNC1=O)C2(C)C)C(C)(C)C`
Reply: Inactive

Continue with the compound presented below.
Task item: Consider the compound shown here: `COC(=O)[C@H](C[C@@H]1CCNC1=O)NC(=O)[C@H](CC(C)C)NC(=O)OCc1ccccc1` What is its recorded anti-SARS-CoV2 (PRNT) in Vero E6 EC50 (μM)?
Reply: inactive

Every entry's value here was drawn from patent US11753373B2.
